The measurements presented in this section are drawn from patent US20090318493A1.

- MEASURED_ON: hSERT transporter (Homo sapiens)
- Construct: expressed in transfected cells; membranes prepared
- Sequence (P31645 whole entry): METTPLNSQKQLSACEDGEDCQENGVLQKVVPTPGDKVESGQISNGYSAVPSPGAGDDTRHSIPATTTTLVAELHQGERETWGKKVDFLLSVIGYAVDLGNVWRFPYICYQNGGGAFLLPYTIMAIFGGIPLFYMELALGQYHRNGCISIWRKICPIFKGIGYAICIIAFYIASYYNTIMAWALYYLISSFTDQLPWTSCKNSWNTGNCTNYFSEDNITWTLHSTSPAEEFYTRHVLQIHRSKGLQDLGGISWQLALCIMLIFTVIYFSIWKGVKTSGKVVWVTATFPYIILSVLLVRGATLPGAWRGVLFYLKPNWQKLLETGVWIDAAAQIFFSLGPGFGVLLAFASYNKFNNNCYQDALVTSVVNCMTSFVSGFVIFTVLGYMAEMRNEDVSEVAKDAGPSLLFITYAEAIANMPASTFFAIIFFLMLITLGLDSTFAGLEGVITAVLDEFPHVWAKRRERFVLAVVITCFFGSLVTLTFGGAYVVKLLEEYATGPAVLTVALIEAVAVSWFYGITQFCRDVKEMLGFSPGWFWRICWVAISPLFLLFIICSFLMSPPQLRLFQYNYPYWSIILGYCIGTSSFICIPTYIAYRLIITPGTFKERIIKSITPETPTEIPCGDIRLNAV
- EXPERIMENT_SUMMARY: Human serotonin transporter (hSERT) scintillation proximity assay, competition with [3H]-Citalopram
- Format: binding
- Experimental: Screening for Human Serotonin Transporter (hSERT) Antagonists Using a Scintillation Proximity Assay (SPA) The screening assay of this example was used to determine the affinity of ligands at the hSERT transporter by competition with [^3H]-Citalopram. […] Cell membranes were prepared using a membrane preparation buffer of 50 mM TRIS (pH 7.4). […] After a second centrifugation, the pellet was re-homogenized and brought to a final volume determined during the assay. […]
PARAMETER_MEASURED: log10 of IC50 (log10 of the value in nM)

>>> reported_measurement("CCC1(C(=O)c2ccc(Cl)c(Oc3ccccc3)c2)CCNC1 (stereo not drawn) [Compound 19]")
1.76
>>> reported_measurement("CCCC1(C(=O)c2ccc(Cl)c(Sc3ccccc3)c2)CCNC1 (stereo not drawn) [Compound 15]")
1.54
>>> reported_measurement("CC(C)C[C@@]1(C(=O)c2ccc(Cl)c(Cl)c2N)CCNC1 [Compound 2]")
0.34
>>> reported_measurement("CCCC1(C(=O)c2ccc(Cl)c(Oc3ccccc3)c2)CCNC1 (stereo in doubt) [Compound 30]")
1.27
>>> reported_measurement("CC[C@]1(C(=O)c2ccc(Cl)c(Cl)c2)CC[C@@H]2CC[C@H]1N2 [Compound 49]")
2.80
>>> reported_measurement("COC(C)(C)CCC1(C(=O)c2cc(F)c3[nH]ccc3c2)CCNC1 (stereo not drawn) [Compound 6]")
0.03
>>> reported_measurement("O=C(c1ccc(Cl)c(Cl)c1)C1(CC2CCCO2)CCNCC1 (stereo not drawn) [Compound 42]")
0.00
>>> reported_measurement("CC(C)C[C@]1(C(=O)c2ccc(N)c(Cl)c2)CCNC1 [Compound 28]")
-0.93
>>> reported_measurement("O=C(c1ccccc1)C1(Cc2ccc(Cl)c(Cl)c2)CCNCC1 [Compound 43]")
1.88
